All values here come from PubChem BioAssay (NCI).

Test system: HOP-62 NSCLC
PROCEDURE SUMMARY: NCI-60 one-dose screen, 48 h
EXPERIMENTAL PARAMETERS: 10 µM unless noted
This is part of a sample that, as a whole, favours compounds with a hit. Of some 83,000 tested, about 20% had one in any assay. Active and inactive are the calls of the source. The calls were made as follows: active = growth percent below 10; inactive = the rest.
Labels: Y for active, N for inactive

# MOLECULE, ASSIGNED CLASS
rows = [
    ("O=C(NNC(=O)c1ccc(OCc2nc3ccc(Cl)cc3[nH]2)cc1)Nc1ccc(Cl)c(C(F)(F)F)c1", "N"),
    ("COc1cc(/C=N/NC(=O)c2ccc(OCc3nc4ccc(Cl)cc4[nH]3)cc2)cc(OC)c1OC", "N"),
    ("Cc1ccc(C(C(=O)NC2CCCCC2)N(Cc2ccccc2Cl)C(=O)c2ccc(CN3CCOCC3)o2)o1 (centres undefined)", "N"),
    ("O=C(CSc1nnc(-c2ccc(-c3nc4ccccc4[nH]3)cc2)o1)Nc1ccccc1", "N"),
    ("O=C1NC(=S)/C(=C/c2cn(-c3ccccc3)nc2-c2ccccc2)S1", "N"),
    ("CCCCCCCCc1cccc(CC(=O)Nc2ccc(C)cc2C(=O)O)c1", "N"),
    ("CN(C)C(=O)c1cc(-c2ccc3ncnc(N4CCc5cc(F)c(Cl)cc54)c3c2)cnc1N", "Y"),
    ("O=C(COc1ccc(/C=C2/C(=O)Nc3ccc(Cl)cc32)cc1)Nc1ccc(Br)cc1", "Y"),
    ("O=C(Nc1nc2ccc([N+](=O)[O-])cc2s1)Nc1ccccc1F", "Y"),
]

###

Test system: UACC-62 melanoma
PROCEDURE SUMMARY: NCI-60 one-dose screen, 48 h (100 = growth as untreated, 0 = no growth, -100 = all killed)
EXPERIMENTAL PARAMETERS: 10 µM unless noted
About 83,000 compounds went through this panel and 20% of them were active in at least one assay; those are over-represented in the sample as a whole.
# reported growth; entries follow
ASSAY ENDPOINT: growth (%)

# COMPOUND, EXPERIMENTAL VALUE
records = [
    ("COC(=O)c1c(C(=O)OC)c2c3ccccc3c3ccccc3n2c1C(=O)C(F)(F)F", 63),
    ("Oc1ccc(Cl)c(Nc2nc(SCCN3CCOCC3)nc3c2cnn3CC(Cl)c2ccc(Br)cc2)c1 (stereo not given)", 39.9),
    ("S=C(NCCc1ccccc1)Nc1ccc(OCc2nc3ccc(Cl)cc3[nH]2)cc1", 34.5),
    ("Nc1nc2cc(-c3ccc4ncnc(NCc5ccccc5)c4c3)ccc2o1", 77.1),
    ("O=C(Nc1ccc(-c2ccc3c(c2)NC(=O)/C3=C\\c2ccc[nH]2)cc1)Nc1ccc(Cl)c(Cl)c1", 42.4),
    ("O=C(CSc1nc2c(c(=O)[nH]1)CCCC2)Nc1ccccc1C(=O)O", 96.1),
    ("Cc1cc(Cl)ccc1NC(=O)Nc1ccc(-c2ccc3c(c2)NC(=O)/C3=C\\c2ccc[nH]2)cc1", 98.5),
    ("COc1ccc2[nH]c(O)c(N=Nc3nc(-c4ccc(C#N)cc4)cs3)c2c1", 72.7),
    ("Cc1nc2sccn2c1-c1nnc(SCC(C)C)o1", 77.2),
    ("O=c1[nH]c2ccccc2cc1CSc1ccccc1Nc1nccc(-c2ccc3c(c2)OCO3)n1", 68.5),
]

###

Tested on: HOP-92 NSCLC
PROCEDURE SUMMARY: NCI-60 one-dose screen, 48 h
EXPERIMENTAL PARAMETERS: 10 µM unless noted
This is part of a sample that, as a whole, favours compounds with a hit. Of some 83,000 tested, about 20% had one in any assay. The source made the active and inactive calls. Rule for the calls: active = growth percent below 10; inactive = the rest.
Labels: true = active, false = inactive

# MOLECULE, ASSIGNED CLASS
records = [
    ("O=C(NNC(=O)c1ccc(OCc2nc3ccc(Cl)cc3[nH]2)cc1)Nc1ccc(Cl)c(Cl)c1", "false"),
    ("Cc1[nH]nc2ccc3nc(-c4cn[nH]c4C(F)(F)F)c4c(c3c12)CCCC4", "true"),
    ("CCC(=O)c1c2c(c3ccc4c5ccccc5ccc4n13)C(=O)c1ccccc1C2=O", "false"),
    ("Cn1cc(-c2cc(N)n3nc(-c4c[nH]c5ccccc45)cc3n2)c2cc(F)ccc21", "false"),
    ("Nc1cc(-c2c[nH]c3ccc(Br)cc23)nc2cc(-c3c[nH]c4ccccc34)nn12", "true"),
    ("COc1cc(/C=C/C(=O)c2cnn(-c3cc(=O)[nH]c4ccc(Br)cc34)c2C)cc(OC)c1OC", "false"),
    ("CCOc1ccc2[nH]c(=O)c(C(c3nnnn3CC3CCCO3)N3CCN(Cc4ccccc4)CC3)cc2c1 (centres undefined)", "false"),
    ("N#C/C(=C1/C(=O)Nc2ccccc21)c1nnc(NC(=O)c2ccc(-n3c(=O)[nH]c4ccccc4c3=O)cc2)s1", "false"),
    ("Cc1ccc(C(C(=O)NC2CCCCC2)N(Cc2ccccc2Cl)C(=O)c2ccc(CN3CCOCC3)o2)o1 (centres undefined)", "false"),
    ("FC(F)(F)c1cc2c(Cl)ncnc2n1CCC1CCOCC1", "false"),
    ("O=C(Nc1ccc(Br)cc1)Nc1ccc(-c2ccc3c(c2)NC(=O)/C3=C\\c2ccc[nH]2)cc1", "false"),
    ("COc1ccc(NC2=C(I)C(=O)C(C)=C(C)C2=O)cc1", "false"),
    ("COc1ccc(-c2cc(-c3cc(OC)c(OC)c(OC)c3)[nH]c(=O)c2C#N)cc1", "true"),
    ("O=C(Nc1nc2ccc([N+](=O)[O-])cc2s1)Nc1ccccc1F", "true"),
    ("COC(=O)c1c(C(=O)OC)c2c3ccccc3c3ccccc3n2c1C(=O)C(F)(F)F", "false"),
    ("CC(C)C[C@H](NC(=O)CNC(=O)C[C@H]1O[C@@H]2OC3(C)CC[C@H]4[C@H](C)CC[C@@H]([C@H]1C)[C@@]24O3)B(O)O", "true"),
    ("Cn1cc(-c2cc3nc(-c4c[nH]c5ccccc45)cc(N)n3n2)c2ccccc21", "true"),
    ("COc1ccc(-c2nc3ccc(-c4nnc(SCc5ccccc5)o4)cc3[nH]2)cc1", "false"),
    ("CC(=O)Nc1ccc(S(=O)(=O)Nc2ccc(-c3ccc4c(c3)NC(=O)/C4=C\\c3ccc[nH]3)cc2)cc1", "false"),
]

###

Tested on: HOP-62 NSCLC
PROCEDURE SUMMARY: NCI-60 one-dose screen, 48 h
EXPERIMENTAL PARAMETERS: 10 µM unless noted
About 83,000 compounds went through this panel and 20% of them were active in at least one assay; those are over-represented in the sample as a whole. Calls of active or inactive are those of the source. How the source made its calls: active means growth percent below 10; inactive means the rest.
Labels: active, inactive

# SMILES STRING, ASSIGNED CLASS
data = [
    ("O=C(N=Nc1c(O)[nH]c2ccc(Br)cc12)c1ccc2nc(-c3ccc(Cl)cc3)[nH]c2c1", "active"),
    ("O=c1ccc(Cn2c(C(F)(F)F)cc3c(Cl)ncnc32)c[nH]1", "inactive"),
    ("O=C(Nc1ccc(Cl)c(C(F)(F)F)c1)N1CCN(c2cc(-c3cn(-c4ccccc4)nc3-c3cccc(O)c3)ccn2)CC1", "inactive"),
    ("COc1ccc(-c2cc(C(=O)N=Nc3c(O)[nH]c4ccc(Cl)cc34)c3ccccc3n2)cc1OC", "inactive"),
    ("S=C(Nc1ccc(OCc2nc3ccc(Cl)cc3[nH]2)cc1)NC1CCCCC1", "active"),
    ("Cc1ccc(C(=O)Nc2cc(-n3cnc(F)c3)cc(C(F)(F)F)c2)cc1C#Cc1cnc2cccnn12", "inactive"),
    ("O=C(N=Nc1c(O)[nH]c2ccc(Cl)cc12)c1ccc2nc(-c3ccc(Cl)cc3)[nH]c2c1", "active"),
    ("CS(=O)(=O)Nc1cncc(-c2ccc3ncnc(NCc4ccccc4)c3c2)c1", "inactive"),
    ("Nc1nnc(CS(=O)(=O)c2ccccc2)s1", "inactive"),
]
